growth values for the molecules below.
- Test system: SF-268 CNS
- Run description: NCI-60 one-dose screen, 48 h (100 = growth as untreated, 0 = no growth, -100 = all killed)
- Experimental conditions: 10 µM unless noted
Compounds without any hit were thinned out: in the full panel of roughly 83,000, 20% have a hit.

| Molecule smiles | growth (%) |
| --- | --- |
| CN1CCN(c2ccc(C(=O)Nc3cccc(C#Cc4cccc5[nH]nc(N)c45)c3)cc2C(F)(F)F)CC1 | -1.07 |
| O=C1N[C@@H]2NC(=[N+]3CCOCC3)N[C@@H]2N1 | 100 |
| O=C(OCc1ccc2cccc(O)c2n1)N1CCN(C(=O)c2cc3cc(F)ccc3[nH]2)CC1 | -73.4 |
| COC(=O)c1c2c(c(C)[n+]([O-])c1C)C(=O)C=C(NCc1ccc(Br)cc1)C2=O | -43.7 |
| COC(=O)CNC(=O)[C@H](Cc1ccccc1)NCc1ccncc1 | 107 |
| COc1cc(-c2nc(SCCC(C)C)nc(Nc3ccccc3Cl)c2C#N)cc(OC)c1OC | 85.7 |
| O=[N+]([O-])c1ccc(-c2nc(N3CCOCC3)c3c4c(sc3n2)CCCC4)cc1 | 94.8 |
| COC(=O)[C@H]1CCCN1C[C@@H](O)CN1C(=O)/C(=C\c2cc(OC)c(OC)c(OC)c2)c2ccccc21 | 99.8 |
| O=C(NNC(=O)c1ccc(-n2cc(-c3ccccc3)nn2)cc1)Nc1ccccc1 | 90.2 |

---

- System: CCRF-CEM leukemia
- Run description: NCI-60 one-dose screen, 48 h (100 = growth as untreated, 0 = no growth, -100 = all killed)
- Experimental conditions: 10 µM unless noted
- Description: Growth inhibition of the CCRF-CEM human tumor cell line is measured as a screen for anti-cancer activity. Cells are grown in 96 well plates and exposed to the test compound for 48 hours. Compounds are tested at a single concentration, which is 10^-5 M for most compounds. The reported endpoint is percent growth (GI% or GIPRCNT), where numbers from 0 - 100% represent growth inhibition, and numbers from -100% - 0 represent cell death. For example, a value of 40 represents 60% growth inhibition. […]
This is part of a sample that, as a whole, favours compounds with a hit. Of some 83,000 tested, about 20% had one in any assay.
Rule: criterion met for growth not less than 20%, criterion not met for anything less.

| Compound | Category |
| --- | --- |
| Clc1ccc(Sc2cnc(-c3ccccc3)o2)cc1 | criterion met |
| O=C(CCCCCCN1CC(=O)N2[C@H](c3cc(Br)cs3)c3[nH]c4ccccc4c3C[C@H]2C1=O)NO | criterion met |
| CCOc1ccc(NC(=O)CSc2oc(-c3ccccc3)nc2S(=O)(=O)c2ccc(F)cc2)cc1 | criterion met |
| CCCCNc1ccc(C#N)c(OCCN(CC)CC)c1 | criterion met |
| CCOC(=O)CSc1ncnc2c1c(-c1ccccc1)c(-c1ccccc1)n2-c1ccc(C)cc1 | criterion met |
| C[C@H](NC(=O)[C@@H](C)N)[C@H](Oc1ccc2c(cnn2-c2ccc(F)cc2)c1)c1ccc2c(c1)OCCO2 | criterion not met |
| CN(CCn1sc(=O)n(Cc2ccccc2)c1=O)Cc1ccc2c(Cl)cc(Cl)c(O)c2n1 | criterion met |
| O=C1/C(=C/c2ccc(F)cc2)COc2ccc(O)c(O)c21 | criterion not met |
| COC1=CC(c2ccc[nH]2)=N/C1=C\c1[nH]c(C)c(C(=O)OCc2ccccc2)c1C | criterion not met |
| COc1cc(NC(C)CCCNC(C)C)c2ncccc2c1OC (stereo not given) | criterion met |
| CN[C@]12CC3(C=CC(=O)C=C3)O[C@@]1(Cc1ccc(OC)cc1)N(C)C(=O)N2 | criterion not met |
| CCOc1nc(-c2ccccc2)cc2c(O)c(C(=O)NN)[nH]c(=O)c12 | criterion met |
| Cc1nc2c(=O)[nH]c(SCC(=O)Nc3cccc(F)c3)nc2[nH]c1=O | criterion met |
| Cc1ccc(-c2cc(-c3ccc(Cl)cc3)nc(NC(=O)c3cccnc3)n2)cc1 | criterion met |
| O=C1N(Cc2ccccc2Cl)c2ccccc2C12NN=C(c1cccc(Cl)c1)S2 (stereo not given) | criterion not met |
| COc1ccc2c(O)c(/C=C3\N=Nc4ncccc43)oc2c1C[C@H]1CCNC[C@H]1F | criterion not met |
| Cc1ccc(CNc2ccc(Cl)cc2NCc2ccc(C)c(O)c2)cc1O | criterion not met |
| CO[C@]12C=C/C(=C(/C(=O)OCc3cccnc3)C(=O)CCCCCCCC[C@@]3(OC)C=C/C(=C(/C(=O)OCc4cccnc4)C(=O)CCCCCCCC1)O3)O2 | criterion not met |
| CCn1c(=S)[nH]c2c(=O)n(C)c(=O)n(C)c21 | criterion met |
| O=C(c1ccc(-c2nc(CSc3nc4ccccc4s3)no2)cc1)N1CCSCC1 | criterion met |

This collection of values is drawn from PubChem BioAssay (NCI).
